- System: barnyardgrass (Echinochloa crus-galli)
- protocolSummary: Test B flooded paddy test barnyardgrass
- Format: in vivo
- conditionsUsed: Table B, Flood, 250 g ai/ha, scale 0 to 100
assayEndpoint: Plant response rating
One number for each entry.

Answered cases to consult:
{"columns": ["compound", "Plant response rating"],
 "data": [
  ["O=C1NCC[C@@H](c2cccc(C(F)(F)F)c2)[C@@H]1C(=O)Nc1ccc(F)c(F)c1F", 0],
  ["O=C1NCC[C@@H](c2cccc(C(F)(F)F)c2)[C@@H]1C(=O)Nc1cccc(Cl)c1F", 0],
  ["O=C1NCCC(c2cccc(OC(F)(F)F)c2)C1C(=O)Nc1ccccc1F (racemic)", 35]
]}

Give Plant response rating for the following compound: O=C1NCC[C@@H](c2cccc(C(F)(F)F)c2)[C@@H]1C(=O)Nc1cccc(F)c1F
0

Source listed as patent US9944602B2.
